experimentalSystem: Epidermal growth factor receptor (Homo sapiens)
Sequence (P00533 whole entry): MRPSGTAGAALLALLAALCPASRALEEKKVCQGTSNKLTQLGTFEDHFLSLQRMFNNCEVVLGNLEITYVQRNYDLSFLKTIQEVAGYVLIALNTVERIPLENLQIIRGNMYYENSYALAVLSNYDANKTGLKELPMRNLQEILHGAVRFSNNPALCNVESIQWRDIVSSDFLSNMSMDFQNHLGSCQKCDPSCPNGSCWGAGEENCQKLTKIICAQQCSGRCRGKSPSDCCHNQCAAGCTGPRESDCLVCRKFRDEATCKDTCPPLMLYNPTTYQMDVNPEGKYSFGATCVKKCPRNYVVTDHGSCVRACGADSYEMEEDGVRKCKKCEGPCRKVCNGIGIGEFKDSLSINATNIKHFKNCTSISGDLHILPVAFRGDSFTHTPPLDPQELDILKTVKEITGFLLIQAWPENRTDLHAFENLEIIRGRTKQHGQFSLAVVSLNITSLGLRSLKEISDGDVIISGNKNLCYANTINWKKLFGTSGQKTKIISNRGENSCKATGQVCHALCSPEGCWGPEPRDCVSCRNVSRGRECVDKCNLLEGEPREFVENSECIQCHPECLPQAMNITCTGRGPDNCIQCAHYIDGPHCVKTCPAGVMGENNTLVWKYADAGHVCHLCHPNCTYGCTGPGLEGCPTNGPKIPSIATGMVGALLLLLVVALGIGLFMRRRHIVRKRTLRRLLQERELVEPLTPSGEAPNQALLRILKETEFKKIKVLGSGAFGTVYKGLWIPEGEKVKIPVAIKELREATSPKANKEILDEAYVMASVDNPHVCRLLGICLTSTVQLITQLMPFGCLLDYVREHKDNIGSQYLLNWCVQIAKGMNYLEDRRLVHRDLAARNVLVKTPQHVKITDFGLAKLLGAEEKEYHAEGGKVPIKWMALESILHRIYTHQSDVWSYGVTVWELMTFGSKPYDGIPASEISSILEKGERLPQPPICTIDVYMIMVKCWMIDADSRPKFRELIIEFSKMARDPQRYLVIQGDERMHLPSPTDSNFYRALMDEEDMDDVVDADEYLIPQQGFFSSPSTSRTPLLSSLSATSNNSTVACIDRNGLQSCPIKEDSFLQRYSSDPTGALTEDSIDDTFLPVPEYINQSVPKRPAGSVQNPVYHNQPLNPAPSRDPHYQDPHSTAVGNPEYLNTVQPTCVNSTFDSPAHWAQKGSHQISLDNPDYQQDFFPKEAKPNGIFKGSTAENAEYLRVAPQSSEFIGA
quantityKind: IC50 (µM)
Dear colleague, please return just the value in µM, with no unit written.

Q) Reported IC50 for `NC[C@H](Cc1cccc(F)c1)NC(=O)c1cc(Br)c(-c2ccnc3[nH]ccc23)s1` : what is it?
A) 10

----------
Observed pKi for RAC-alpha serine/threonine-protein kinase (Homo sapiens, UniProt P31749), reported per entry below.
Scale: pKi equals -log10([C]), with [C] in mol/L.

These recorded examples may help you get a feel for the data.
> print(dat)
                          compoundstructure  quantitykind  observedresult
1  COc1ccc(C[C@@H](CN)NC(=O)c2cc(Br)c(-c3ccnc4[nH]ccc34)s2)cc1           pKi            8.30
2  NC[C@H](Cc1ccc(C(F)(F)F)cc1)NC(=O)c1cc(Br)c(-c2ccnc3[nH]ccc23)s1           pKi            8.70
3  NC[C@H](Cc1ccc(F)cc1)NC(=O)c1cc(Br)c(-c2ccnc3[nH]ccc23)s1           pKi           10.22
4  NC[C@@H](Cc1ccccc1)NC(=O)c1cc(Br)c(-c2ccnc3[nH]ccc23)s1           pKi            7.70
5  NC[C@H](Cc1cccc(C(F)(F)F)c1)NC(=O)c1cc(Br)c(-c2ccnc3[nH]ccc23)s1           pKi           10.00

Now consider a different compound.
Q) Given the entry `NC[C@H](Cc1ccccc1)NC(=O)c1cc(Br)c(-c2ccnc3[nH]ccc23)s1` , what pKi was observed with RAC-alpha serine/threonine-protein kinase (Homo sapiens, UniProt P31749)?
A) 10.22
